Hello, the source for this data is paper PMC10288911, in case you need it.

TARGET UNDER TEST: 6×His-tagged FcRn/β2m (UniProt P55899 24-365; P61769 21-119)
Sequence (P55899 24-365, chain 1 of 2): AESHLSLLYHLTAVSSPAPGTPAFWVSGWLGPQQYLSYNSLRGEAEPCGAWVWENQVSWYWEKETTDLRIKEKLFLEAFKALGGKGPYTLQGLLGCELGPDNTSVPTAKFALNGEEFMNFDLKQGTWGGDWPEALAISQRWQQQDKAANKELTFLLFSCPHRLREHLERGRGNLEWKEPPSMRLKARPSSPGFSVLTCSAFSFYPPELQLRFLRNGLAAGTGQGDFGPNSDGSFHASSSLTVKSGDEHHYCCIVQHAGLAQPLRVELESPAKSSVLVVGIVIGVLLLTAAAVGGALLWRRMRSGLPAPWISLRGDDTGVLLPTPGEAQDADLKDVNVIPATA
Sequence (P61769 21-119, chain 2 of 2): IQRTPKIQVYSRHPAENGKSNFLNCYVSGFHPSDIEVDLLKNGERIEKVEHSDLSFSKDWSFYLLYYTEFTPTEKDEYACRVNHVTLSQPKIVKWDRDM
PROTOCOL DESCRIPTION: BLI; pH 7.4; FcRn immobilised

{"BINDER": "VRC07-523LS.v23 (antibody) chain 1: QVRLSQSGGQMKKPGDSMRISCRASGYEFINCPINWIRLAPGKRPEWMGWMKPRFGAVSYARQLQGRVTMTRQLSQDPDDPDWGTAFLELRSLTSDDTAVYFCTRGKYCTARDYYNWDFEHWGQGTPVTVSS chain 2: LTQSPGTLSLSPGETAIISCSTSQYGSLAWYQQRPGQAPRLVIYSGSTRAAGIPDRFSGSRWGPDYNLTISNLESGDFGVYYCQQYEFFGQGTKVQVD", "UNIT TAG": "nM", "Kd": 1600}
